Give Cell-based functional reporter assay (IC50, nM) for every item shown.
# TEST_TARGET: human PD-1 on PD-1 Effector Cell Line (Genscript, GS-J2/PD-1) (human, UniProt Q15116 25-288)
# Sequence (Q15116 25-288): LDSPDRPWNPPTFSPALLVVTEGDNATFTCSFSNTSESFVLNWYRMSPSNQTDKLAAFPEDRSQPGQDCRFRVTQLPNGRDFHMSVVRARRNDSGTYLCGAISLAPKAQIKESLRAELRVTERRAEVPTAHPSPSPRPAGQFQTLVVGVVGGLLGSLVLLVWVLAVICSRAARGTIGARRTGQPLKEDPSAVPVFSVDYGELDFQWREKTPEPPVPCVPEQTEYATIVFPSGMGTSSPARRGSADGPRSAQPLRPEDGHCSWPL
# ASSAY_OVERVIEW: cell-based or functional assay
Numbers only, in nM.

Answered cases to consult:
chimeric D2A4 antibody (antibody, human IgG1, kappa, V domains shown, Mouse variable domains cloned in frame to human IgG1 and kappa constant regions; also called chD2A4; ChD2A4) VH: EVKLVESGGGLVKPGGSLKLSCAASGFTFSSYTMSWVRQTPAKRLEWVATISGGGSNTYYPDSVKGRFTISRDNARNTLYLQMSSLRSEDTAMYYCARQAFYSNYWYFDVWGAGTTVTVSS VL: DIQMTQSPASQSASLGESVTITCLASQTIGTWLAWYQQTPGKSPQLLIYAATSLADGVPSRFSGSGSGTKFSFKISSLQAEDFASYYCQQVSSIPWTFGGGTKLEIRR | 9.46
mouse anti-PD-1 monoclonal antibody D2A4 (antibody, V domains shown, Mouse antibody purified from a hybridoma; also called Mouse D2A4; mouse D2A4) VH: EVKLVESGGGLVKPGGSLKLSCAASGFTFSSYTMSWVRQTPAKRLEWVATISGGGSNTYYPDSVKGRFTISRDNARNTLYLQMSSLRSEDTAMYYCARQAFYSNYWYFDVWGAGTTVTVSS VL: DIQMTQSPASQSASLGESVTITCLASQTIGTWLAWYQQTPGKSPQLLIYAATSLADGVPSRFSGSGSGTKFSFKISSLQAEDFASYYCQQVSSIPWTFGGGTKLEIR | 6.18

For the 2 binders below, give their Cell-based functional reporter assay (IC50, nM) values.
1. mouse anti-PD-1 monoclonal antibody D2H3 (antibody, V domains shown, Mouse antibody purified from a hybridoma; also called Mouse D2H3; mouse D2H3) VH: EVQLQQSGTVLARPGASVKMSCKSSGYTFTNYWMHWVKQRPGQGLEWIGAIFPRNSETNYNQKFKAKAKLTAVTSASTAYMEVSSLTSEDSAVYFCTRNRYGLDYWGQGTSVTVSS VL: DIVLTQSPGFLAVSLGQRATISCRASESVSLHGTRLMHWYHQKPGQPPKLLISLGSNLESGVPARFSGSGSETDFTLNIHPVEEEDAATYFCQQSIEDPWTFGGGTKLEIK
2. chimeric D2H3 antibody (antibody, human IgG1, kappa, V domains shown, Mouse variable domains cloned in frame to human IgG1 and kappa constant regions; also called chD2H3) VH: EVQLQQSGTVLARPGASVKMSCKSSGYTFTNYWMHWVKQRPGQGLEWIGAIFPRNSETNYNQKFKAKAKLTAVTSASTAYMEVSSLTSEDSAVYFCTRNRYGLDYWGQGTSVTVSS VL: DIVLTQSPGFLAVSLGQRATISCRASESVSLHGTRLMHWYHQKPGQPPKLLISLGSNLESGVPARFSGSGSETDFTLNIHPVEEEDAATYFCQQSIEDPWTFGGGTKLEIKR

output:
1: 8.48; 2: 5.36
